# System: PANC-1
# Procedure Summary: Preferential cytotoxic activity against human PANC-1 cells in Dulbecco's modified Eagle's medium
# Format: functional, cell-based
Result Type: IC50 (µM)

1. C[C@]12CC[C@H]3[C@@H](CCC4=CC(=O)CC[C@@]43C)[C@@H]1CC(=O)[C@@H]2CSCCO 100
2. C[C@]12CCC(=O)C=C1CC[C@@H]1[C@@H]2CC[C@]2(C)C(=C(F)F)[C@H](O)C[C@@H]12 51
3. C=C1C(=O)C[C@H]2[C@@H]3CC[C@H]4CCCC[C@]4(C)[C@H]3CC[C@]12C 3
4. C=C1[C@H](OCOC)C[C@H]2[C@@H]3CCC4=CC(=O)CC[C@]4(C)[C@H]3CC[C@]12C 100
5. COCO[C@@H]1C[C@H]2[C@@H]3CCC4=CC(=O)CC[C@]4(C)[C@H]3CC[C@]2(C)C1=C(F)F 29
